Target: UniProt P31650
Sequence (P31650 whole entry): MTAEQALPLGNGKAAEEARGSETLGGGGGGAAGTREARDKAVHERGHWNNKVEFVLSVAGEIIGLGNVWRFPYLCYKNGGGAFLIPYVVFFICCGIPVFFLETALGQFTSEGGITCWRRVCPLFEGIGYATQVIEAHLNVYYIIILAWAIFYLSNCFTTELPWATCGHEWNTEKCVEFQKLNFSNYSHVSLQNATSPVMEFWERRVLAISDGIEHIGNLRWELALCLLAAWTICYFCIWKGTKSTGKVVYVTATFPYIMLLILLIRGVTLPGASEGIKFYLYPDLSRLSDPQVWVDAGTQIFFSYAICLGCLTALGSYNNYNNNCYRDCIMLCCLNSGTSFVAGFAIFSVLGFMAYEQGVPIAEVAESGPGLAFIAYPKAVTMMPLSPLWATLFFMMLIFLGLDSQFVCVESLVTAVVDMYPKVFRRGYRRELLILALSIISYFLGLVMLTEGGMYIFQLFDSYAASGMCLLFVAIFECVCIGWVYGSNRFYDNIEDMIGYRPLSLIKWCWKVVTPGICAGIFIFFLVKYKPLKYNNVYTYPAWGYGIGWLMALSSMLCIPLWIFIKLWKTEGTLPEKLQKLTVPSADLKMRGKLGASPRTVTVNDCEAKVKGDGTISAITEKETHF
Experiment: Inhibition of [3H]GABA uptake at mouse GAT4 expressed in HEK cells assessed as remaining [3H]GABA uptake at 100 uM relative to control
Assay type: cell-based
Details: HEK293
Listed here: items and their measured Activity.
Just the number in %, nothing appended.

                                   compound  valuereported
0  Oc1c(F)cc(CNCCC=C(c2ccccc2)c2ccccc2)cc1F             76
1  COc1ccc(C(OCCNCc2c(F)cc(F)c(O)c2F)(c2ccc(OC)cc2)c2ccc(OC)cc2)cc1             64
2  Cc1ccsc1C(=CCCN1CCC[C@@H](C(=O)O)C1)c1sccc1C [TIAGABINE]             73
3  COc1ccc(C(OCCNCc2cc(F)c(O)c(F)c2)(c2ccc(OC)cc2)c2ccc(OC)cc2)cc1             67

In: Please look up its Activity: COc1ccc(C(OCCNCc2ccc(F)c(O)c2F)(c2ccc(OC)cc2)c2ccc(OC)cc2)cc1
Out: 82
